B1: CPEB3 Ribozyme (parent)
chain: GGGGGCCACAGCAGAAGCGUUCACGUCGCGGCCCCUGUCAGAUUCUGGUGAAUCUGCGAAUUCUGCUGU

Variants of: B1
Experiment: self-cleavage, relative activity (ratio to wild type); higher = more cleavage; co-transcriptional
endpoint: self-cleavage
Answer with a bare number; do not write a unit.

Could you share which self-cleavage value was measured for GGGGGGCAGAGCAGAAGCGUUCACGUCGCGGCCCCUGUCAGAUUCUGGUGAAUCUGCGAAUUCUGCUGU ?
0.445

Could you share which self-cleavage value was measured for GGGGGCCACAGGAGAAGCGUUCACGUCGCGGCCCCUGUCAGAUUCUGGUGAAUCUGGGAAUUCUGCUGU ?
0.427

Could you share which self-cleavage value was measured for GGGGGCCACAGCACAAGCGUUCACGUCGCGGCCCGUGUCAGAUUCUGGUGAAUCUGCGAAUUCUGCUGU ?
0.191
